The entries below come with measured pIC50 values attached.
- experimental_target: cMET enzyme (amino acids 1023-1360) (Homo sapiens, UniProt P08581)
- Construct: The cMET enzyme (amino acids 1023-1360) nominally at 24 μM was held at −80° C. until use; His tag (N, cleaved yes); made in house; host or cells: Sf9 cells
- Sequence (P08581 1023-1360): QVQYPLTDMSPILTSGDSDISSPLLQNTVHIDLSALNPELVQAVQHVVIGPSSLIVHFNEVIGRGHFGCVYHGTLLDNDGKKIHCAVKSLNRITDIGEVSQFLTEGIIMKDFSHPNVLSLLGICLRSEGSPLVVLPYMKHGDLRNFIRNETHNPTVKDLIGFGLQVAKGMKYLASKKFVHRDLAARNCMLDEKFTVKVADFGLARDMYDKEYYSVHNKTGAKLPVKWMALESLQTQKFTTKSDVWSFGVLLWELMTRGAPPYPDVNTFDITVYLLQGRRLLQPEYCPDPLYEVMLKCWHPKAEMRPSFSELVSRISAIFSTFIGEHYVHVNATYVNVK
- assay: Determination of inhibition of cMET (capillary electrophoresis, phosphorylated peptide product)
- Format: biochemical
- measurement_conditions: 1.2 nM cMET, 50 μM ATP, 2 μM FL-2 peptide, 2 hours room temperature
pIC50: −log10 of the molar value.

INSERT INTO assay_data (compound, result) VALUES
  ('O=C(Nc1cn2nc(Cn3nnc4ccc(-c5cnn(C[C@H](O)CO)c5)cc43)ccc2n1)C1CC1', '7.00 to 7.22'),
  ('Cc1ccc2nnc(Sc3ccc4nc(NC(=O)C5CC5)cn4n3)n2c1', '7.00 to 7.22');

Reported pIC50 (cMET enzyme (amino acids 1023-1360) (Homo sapiens, UniProt P08581)) for entry COc1ccc(-c2ccc3nnc(C(F)(F)c4ccc5nc(NC(=O)C6CC6)cn5n4)n3c2)cn1 is 7.23 to 7.52

Entry COCCOCn1cc(-c2ccc3nnc(Sc4ccc5nc(NC(=O)C6CC6)cn5n4)n3c2)cn1 under cMET enzyme (amino acids 1023-1360) (Homo sapiens, UniProt P08581) had pIC50 of 7.00 to 7.22

Lab note: compound CC(c1ccc2nc(NC(=O)C3CC3)cn2n1)c1nnc2ccc(-c3cnn(C)c3)cn12 (stereo not shown) [49 (free base)] tested on cMET enzyme (amino acids 1023-1360) (Homo sapiens, UniProt P08581); recorded pIC50 was > 7.52

Assay cMET enzyme (amino acids 1023-1360) (Homo sapiens, UniProt P08581), sample Cc1csc(-c2ccc3nnc(C(C)c4ccc5nc(NC(=O)C6CC6)cn5n4)n3c2)c1 (stereo not shown) , pIC50 read: > 7.52

Reported cMET enzyme (amino acids 1023-1360) (Homo sapiens, UniProt P08581) pIC50 for item CC(c1ccc2nc(NC(=O)C3CC3)cn2n1)c1nnc2ccc(-c3ccc(C#N)cc3)cn12 (stereo not shown) was > 7.52
